I'd appreciate it if you could supply self-splicing fitness (ln) values for the items below.
# assay-summary: self-splicing fitness, log relative to wild type (ln ratio); higher = more splicing; Tetrahymena group I intron in knt gene, E. coli kanamycin selection, DiMSum; sequences stand for … in CUCUCU…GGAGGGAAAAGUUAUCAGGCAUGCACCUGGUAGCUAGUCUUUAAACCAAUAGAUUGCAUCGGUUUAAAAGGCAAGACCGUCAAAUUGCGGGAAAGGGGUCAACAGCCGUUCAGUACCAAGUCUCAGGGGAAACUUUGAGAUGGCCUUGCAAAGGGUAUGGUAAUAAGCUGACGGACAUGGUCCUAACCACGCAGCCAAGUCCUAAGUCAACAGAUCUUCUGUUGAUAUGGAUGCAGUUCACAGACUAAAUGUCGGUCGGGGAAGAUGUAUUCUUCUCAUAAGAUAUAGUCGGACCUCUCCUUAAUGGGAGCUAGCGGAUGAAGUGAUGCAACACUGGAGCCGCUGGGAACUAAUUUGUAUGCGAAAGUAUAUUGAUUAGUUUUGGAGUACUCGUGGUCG;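 also: selection with 25 µg/mL kanamycin versus none on LB agar overnight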
# measurement-context: 37 °C
Give bare numbers.

# annotated cases, reported self-splicing fitness (ln) shown
GGCGAGCAAUAUUACGACGU
-0.783
AUGUAGCAAUAUUACGUUAA
-2.3
GCGGAGCAAUAUUACGGAGU
-2.1

Batch lookup, self-splicing fitness (ln) per entry.
1. AGAUAGCAAUAUUACGAAAA
2. CAGGAGCAAUAUUACGAUGC
3. UCACAGCAAUAUUACGAUGG
4. GCGUAGCAAUAUUACGCGUA
5. UGGUAGCAAUAUUACGAGCA
6. GUAGAGCAAUAUUACGUUCG
7. AUUGAGCAAUAUUACGGAUU
8. UGCAAGCAAUAUUACGAUGA

(A)
1. -2.12
2. -2.83
3. -0.512
4. -2.3
5. -0.131
6. -0.139
7. -1.64
8. 0.0415

----------
# assay-summary: self-splicing fitness, log relative to wild type (ln ratio); higher = more splicing; Tetrahymena group I intron in knt gene, E. coli kanamycin selection, DiMSum; sequences stand for … in CUCUCU…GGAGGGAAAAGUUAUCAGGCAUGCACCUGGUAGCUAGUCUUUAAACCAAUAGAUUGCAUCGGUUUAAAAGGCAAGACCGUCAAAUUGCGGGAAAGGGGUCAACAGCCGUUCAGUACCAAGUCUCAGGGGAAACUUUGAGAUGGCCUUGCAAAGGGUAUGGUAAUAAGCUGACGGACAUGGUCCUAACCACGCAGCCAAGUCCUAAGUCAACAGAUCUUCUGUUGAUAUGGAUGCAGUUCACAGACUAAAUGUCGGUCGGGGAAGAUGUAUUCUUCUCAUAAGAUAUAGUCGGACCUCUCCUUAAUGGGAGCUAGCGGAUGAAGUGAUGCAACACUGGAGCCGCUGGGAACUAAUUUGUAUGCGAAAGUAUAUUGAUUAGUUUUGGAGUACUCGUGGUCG
# measurement-context: 37 °C
property: self-splicing fitness (ln)
Answers are plain numbers.

# annotated cases, reported self-splicing fitness (ln) shown
AAGAAGCAAUAUUACGAUCC
-0.745
CAUGAGCAAUAUUACGAGUG
-3

Batch lookup, self-splicing fitness (ln) per entry.
1. GGGAAGCAAUAUUACGUCAU
2. UUGGAGCAAUAUUACGGCAG

(A)
[-0.7, -1.01]

Batch lookup, self-splicing fitness (ln) per entry.
1. UAAGAGCAAUAUUACGAGGC
2. CGGUAGCAAUAUUACGUGCU
3. UGAUAGCAAUAUUACGUGAG
4. UUGAAGCAAUAUUACGUGGA

(A)
1. -1.97
2. -2.51
3. -0.543
4. -1.6

Batch lookup, self-splicing fitness (ln) per entry.
1. GCACAGCAAUAUUACGGAGU
2. CUCAAGCAAUAUUACGUUCU
3. AAAAAGCAAUAUUACGUACG
4. UCACAGCAAUAUUACGCUUA
5. UAUAAGCAAUAUUACGUUGG

(A)
[-0.838, -2.68, -0.101, -0.902, -2.23]

Source of measurements: the supplement of paper PMC7877785
